B1: FEM1A (parent)
chain: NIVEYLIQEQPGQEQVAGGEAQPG

Variants of: B1
Assay: protein stability index of a GFP-peptide fusion (GPS, HEK-293T) (PSI 1-6); higher = more stable;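 further: lentivirally expressed fusions sorted by FACS into six bins by GFP to DsRed ratio, PSI derived from sequencing read proportions per bin multiplied by bin number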
Conditions: c terminus: a fixed tail appended
Experimental readout: protein stability index
No unit in the answer, please; the number alone is enough.

[Q] Supply measured protein stability index of N1Q in your reply.
[A] 3.89

[Q] Give me measured protein stability index, please, for this variant: A17T
[A] 3.91

[Q] Output protein stability index of Q22A
[A] 4.1

[Q] Complete the entry with protein stability index for A21Y
[A] 4.03

[Q] Consider the variant P11G . State its measured protein stability index.
[A] 3.89

[Q] Specify reported protein stability index for the variant shown: G12E
[A] 4.73

[Q] Return protein stability index for the following variant: Q13T
[A] 3.94

[Q] Retrieve protein stability index measured for I7F and print it.
[A] 4.14

[Q] Quickly give me recorded protein stability index for Y5G
[A] 5.7

[Q] Return reported protein stability index. Input variant: V16E
[A] 4.35

[Q] Hello, please tell me recorded protein stability index for this one: P23N
[A] 4.25

[Q] Look up and state reported protein stability index for E4V
[A] 1.82

[Q] Quote protein stability index reported for Q13K please.
[A] 4.48

[Q] Output protein stability index of A21G
[A] 3.86

[Q] Give recorded protein stability index. L6D
[A] 5.26

[Q] State its protein stability index for this variant: I2Y
[A] 4.59

[Q] Answer with the recorded protein stability index of Q10Y only.
[A] 3.09

[Q] Tell me protein stability index reported for E14R
[A] 3.37

[Q] Give protein stability index for the following variant: Y5I
[A] 3.98

[Q] Query protein stability index for G18I
[A] 3.85

[Q] Note protein stability index for the variant shown: G19P
[A] 4.16

[Q] Give the measured protein stability index for V16G
[A] 4.6

[Q] Look up and state reported protein stability index for N1G
[A] 4.34

[Q] State its protein stability index: G18R
[A] 4.15

[Q] Give protein stability index for N1D
[A] 3.66

[Q] Identify protein stability index associated with the variant E4Y
[A] 2.31

[Q] State its protein stability index: L6T
[A] 5.59

[Q] Indicate the recorded protein stability index value for this variant: Q8I
[A] 3.18

[Q] Check the records and state protein stability index for Q13I
[A] 3.35

Where do the numbers come from? From the supplement of paper PMC10567573.
